Target: Grb2 SH2 (UniProt P62993)
Experiment: SH2 binding enrichment of the phosphorylated peptide, bacterial display (enrichment ratio); higher = better substrate or ligand; peptides without Tyr show the background
READOUT NAME: SH2 binding enrichment

Sample records with SH2 binding enrichment:
entry_sequence="CTTSHYNFMCN [TP53_Y234_I232S_YF]" readout_name="SH2 binding enrichment" recorded_value=1.14
entry_sequence="GFEVVYVTEPI [HSP90AB1_Y512_M513V]" readout_name="SH2 binding enrichment" recorded_value=0.802
entry_sequence="PLDGEYFTLHI [TP53_Y327_Q331H]" readout_name="SH2 binding enrichment" recorded_value=0.852
entry_sequence="KKFVPYFDLFM [IPO5_Y530_E525K_YF]" readout_name="SH2 binding enrichment" recorded_value=1.58
entry_sequence="KASGKYYAMKI [AKT3_Y173]" readout_name="SH2 binding enrichment" recorded_value=1.38

P = LSVMSYDLGMF [GBA3_Y174]
Q = ADNQRYAFMPL [TMEM87B_Y460_N456D]
Ask: Kindly identify the item with the lower SH2 binding enrichment figure among these two: P and Q Returns: label corresponding to the selected item.
Reply: P

I = IQTDGDRAPEA [UHMK1_Y197_Y197D]
II = PPSGEYFGQCG [TRIP6_Y275]
Ask: Kindly identify the item with the lower SH2 binding enrichment figure among these two: I and II Returns: label corresponding to the selected item.
Reply: I
(I: 0.762, II: 1.19)

a = FRIGPYQPNVP [MATR3_Y784_YF]
b = YETVKYINNER [ABCB7_Y345_F346I]
Ask: Please tell me which of the two, a or b , has the higher reported SH2 binding enrichment value. Returns: label corresponding to the selected item.
Reply: b

a = TEALFYTDDTA [ADPRS_Y75_YF]
b = ILTLKYLIEHG [ACTG1_Y69_P70L]
Ask: Kindly identify the item with the lower SH2 binding enrichment figure among these two: a and b Returns: label corresponding to the selected item.
Reply: a

1 = TFHNTYHSQMR [IL1RAPL1_Y615]
2 = GFAIVYGTIIL [GPR179_Y460]
Ask: Kindly identify the item with the lower SH2 binding enrichment figure among these two: 1 and 2 Returns: label corresponding to the selected item.
Reply: 2

###

Target: FGFR3 (UniProt P22607)
Sequence (P22607 whole entry, looked up): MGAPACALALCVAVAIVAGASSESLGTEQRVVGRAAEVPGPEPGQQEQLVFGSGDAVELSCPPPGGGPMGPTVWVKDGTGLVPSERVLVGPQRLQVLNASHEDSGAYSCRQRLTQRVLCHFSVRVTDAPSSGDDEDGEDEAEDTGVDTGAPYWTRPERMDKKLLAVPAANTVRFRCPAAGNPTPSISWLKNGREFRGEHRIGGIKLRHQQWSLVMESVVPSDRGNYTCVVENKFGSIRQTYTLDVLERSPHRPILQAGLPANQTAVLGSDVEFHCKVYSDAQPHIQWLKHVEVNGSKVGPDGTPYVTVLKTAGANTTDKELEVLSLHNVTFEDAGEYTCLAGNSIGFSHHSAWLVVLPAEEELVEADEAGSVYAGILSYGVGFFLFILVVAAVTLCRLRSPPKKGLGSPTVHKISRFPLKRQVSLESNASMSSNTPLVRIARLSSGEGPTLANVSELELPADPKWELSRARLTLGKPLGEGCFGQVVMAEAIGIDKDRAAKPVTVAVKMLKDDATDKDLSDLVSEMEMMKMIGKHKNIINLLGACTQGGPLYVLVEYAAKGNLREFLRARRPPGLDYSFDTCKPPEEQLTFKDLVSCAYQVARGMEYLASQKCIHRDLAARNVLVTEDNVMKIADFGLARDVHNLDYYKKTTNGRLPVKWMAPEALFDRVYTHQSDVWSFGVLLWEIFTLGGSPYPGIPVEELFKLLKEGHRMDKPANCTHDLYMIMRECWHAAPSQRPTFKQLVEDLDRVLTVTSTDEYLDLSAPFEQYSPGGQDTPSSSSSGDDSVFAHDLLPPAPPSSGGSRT
Assay: phosphorylation enrichment, bacterial display (enrichment ratio); higher = better substrate or ligand; peptides without Tyr show the background
READOUT NAME: phosphorylation enrichment
Please reply with the value in numeric form only.

entry_sequence="KYVKMCDNHQL [MYO9A_Y203_Y203C]" recorded_value=0.547
entry_sequence="SVETPYGSVTF [NDRG2_Y47]" recorded_value=0.53
entry_sequence="SIKDKYVTAVF [KCNH2_Y611_L615V_YF]" recorded_value=0.541

Ask: # phosphorylation enrichment lookup, item EMTRNYIIFIE [BCO2_Y294_G289E]
Reply: 0.683

Ask: Similarly, MRALTYCDLHK [KCNH2_Y827_V822M] ?
Reply: 0.536

Ask: Similarly, RPSELYYSKIS [SMG1_Y2253_G2258S] ?
Reply: 3.5

Ask: Similarly, YGCGMYSHLQG [LGR4_Y848_D844G] ?
Reply: 0.998

Ask: Similarly, KGERGYPGTLG [COL4A1_Y348_P352L] ?
Reply: 0.484

Ask: Similarly, LRVGFYESDVM [A2M_Y708] ?
Reply: 2.89

Ask: Similarly, MARDIYRASYY [ALK_Y1278] ?
Reply: 0.63
